Values were extracted from PubChem BioAssay AID330.

- System: P388 leukemia ip, CD2F1 mice, survival T/C
- experiment summary: NCI In Vivo Anticancer Drug Screen. Data for tumor model P388 Leukemia (intraperitoneal) in CD2F1 (CDF1) mice
- measurement setup: endpoint: median survival time; dose: 25.0 mg/kg/injection; schedule: Q01DX009 (ip); vehicle: Klucel (hydroxypropylcellulose) (HPC); higher = longer survival
Inconclusive results and toxic doses are left out.
endpoint label: T/C

• Clc1nn2cnnc2c2ncccc12 = 96 % of control
• c1ccc(CNc2nc(NCc3ccccc3)c3cn[nH]c3n2)cc1 = 98 % of control
• NNC(=O)c1ccc(-c2ccccc2)cc1 = 102 % of control
• O=C1c2ccccc2CCC12OC2c1cccnc1 (stereo not drawn) = 100 % of control
• CCCCN(CCC#N)c1ccc(/C=C/c2ccnc3ccccc23)cc1 = 96 % of control
• c1ccc2c(NC3=NCCO3)c3ccccc3nc2c1 = 111 % of control
• CC(=O)c1cccc(NC(=O)Nc2nccs2)c1 = 102 % of control
• Oc1ccc(N=Cc2cccs2)cc1 = 110 % of control

###

- Tested on: P388 leukemia ip, CD2F1 mice, survival T/C
- experiment summary: NCI In Vivo Anticancer Drug Screen. Data for tumor model P388 Leukemia (intraperitoneal) in CD2F1 (CDF1) mice
- measurement setup: endpoint: median survival time; dose: 15.0 mg/kg/injection; schedule: Q01DX005 (ip); vehicle: Klucel (hydroxypropylcellulose) (HPC); higher = longer survival
Inconclusive results and toxic doses are left out.
Listing of entries alongside the reported T/C.
endpoint label: T/C

• O/N=C1/C(=N/O)N(c2ccccc2)CN1c1ccccc1 = 95 % of control
• O=C1CC2C3C1N(c1ccc(Cl)cc1)C1(Nc4ccc(Cl)cc4)C(=O)CC(C31)N2c1ccc(Cl)cc1 (configuration not stated) = 101 % of control
• CNC(=O)OCc1c(COC(=O)NC)c2n(c1C)-c1ccc(OC)cc1CCC2 = 122 % of control
• COc1cc(/C=C/C(C)=N/NC(N)=S)cc(OC)c1OC = 99 % of control
• CN(C)C(=O)c1ccc(SC(=S)NCc2ccccc2)cc1 = 103 % of control
• CN(C)C(=[Se])[Se]C(=[Se])N(C)C = 100 % of control
• CB1N(c2ccccc2)N=NN1C(C)(C)C = 97 % of control

###

Attribute: T/C
- Test system: P388 leukemia ip, CD2F1 mice, survival T/C
- experiment summary: NCI In Vivo Anticancer Drug Screen. Data for tumor model P388 Leukemia (intraperitoneal) in CD2F1 (CDF1) mice
- measurement setup: endpoint: median survival time; dose: 200.0 mg/kg/injection; schedule: Q01DX009 (ip); vehicle: saline with Tween-80; higher = longer survival
Inconclusive results and toxic doses are left out.
endpoint label: T/C

* CN(c1ccccc1)S(=O)(=O)c1ccccc1 | 95 % of control
* O=C1NC(=Nc2ccccc2)N(c2ccccc2)C1=Nc1ccccc1 | 86 % of control
* [N-]=[N+]=NCN1C(=O)C2C3C=CC(C2C1=O)C1C2C(=O)N(CN=[N+]=[N-])C(=O)C2C31 (stereo unspecified) | 115 % of control
* Cc1cc(O)c(C(c2ccc(C#N)cc2)c2c(O)cc(C)[nH]c2=O)c(=O)[nH]1 | 98 % of control
* CC(C)COC(CNC(=O)c1ccccc1)C(Cl)(Cl)Cl (stereo unspecified) | 110 % of control
* C#CCSc1nnnn1-c1ccccc1 | 90 % of control
* Nc1cc(=O)[nH]c(=O)[nH]1 | 98 % of control
* CC(C)(C)C(=O)OCCN(CCOC(=O)C(C)(C)C)C(=O)COC(=O)C(C)(C)C | 100 % of control
* S=C(c1c(Cl)cccc1Cl)N1CN(Cc2ccc(Cl)cc2)CN(Cc2ccc(Cl)cc2)C1 | 108 % of control
* Cc1[nH]c(=O)[nH]c(=O)c1C=O | 99 % of control
* CN(C)CCc1ccc2ccc3cccc4ccc1c2c34 | 108 % of control

###

- Test system: P388 leukemia ip, CD2F1 mice, survival T/C
- experiment summary: NCI In Vivo Anticancer Drug Screen. Data for tumor model P388 Leukemia (intraperitoneal) in CD2F1 (CDF1) mice
- measurement setup: endpoint: median survival time; dose: 100.0 mg/kg/injection; schedule: Q01DX001 (ip); vehicle: saline with Tween-80; higher = longer survival
Toxic doses and inconclusive results are not listed.
Catalogue of T/C values
endpoint label: T/C

• CN(C)CC1=c2ccccc2=N/C1=C\c1ccc(N(C)C)cc1 = 89 % of control
• CC/C(C)=N\Nc1cc(C)[nH]c(=O)c1 = 105 % of control
• CCOC(=O)CCCCCO = 104 % of control
• Cn1c(N)c(N=Nc2cccnc2)c(=O)n(C)c1=O = 95 % of control
• NC(N)=N/N=C1\C/C(=N\N=C(N)N)c2cc3ccccc3cc21 = 93 % of control
• CN(C)c1ccc(/C=C/c2ccnc3c2ccc2ccccc23)cc1 = 93 % of control
• Cc1cc(=O)c2c(ccc3[nH]c(-c4ccco4)nc32)[nH]1 = 94 % of control
• c1ccc(-c2nnc(-c3ccccc3)c3c2nn2ccc4ccccc4c32)cc1 = 90 % of control
• Cc1cc(Oc2ccc(Cl)cc2NC(=O)Nc2cccc(C(F)(F)F)c2)cc(S(=O)(=O)O)c1Cl = 100 % of control
• COC(=O)Nc1cn2nc(N)sc2n1 = 102 % of control
• O=[N+]([O-])c1ccc(N/N=C(\CBr)c2ccccc2)c([N+](=O)[O-])c1 = 91 % of control
• C/C(=N\OC(=O)CNOC(C)(C)C)c1ccccn1 = 103 % of control

###

- Test system: P388 leukemia ip, CD2F1 mice, survival T/C
- experiment summary: NCI In Vivo Anticancer Drug Screen. Data for tumor model P388 Leukemia (intraperitoneal) in CD2F1 (CDF1) mice
- measurement setup: endpoint: median survival time; dose: 400.0 mg/kg/injection; schedule: Q04DX003 (ip); vehicle: Klucel (hydroxypropylcellulose) (HPC); higher = longer survival
Toxic doses and inconclusive results are not listed.
endpoint label: T/C

- O=C(O)Cc1ccc(C2CCCCC2)cc1: 100 % of control
- CC(C)(C)C1(C#N)C(=O)N(c2ccc(N3C(=O)C(C#N)(C(C)(C)C)C34c3ccccc3-c3ccccc34)cc2)C12c1ccccc1-c1ccccc12 (stereo unspecified): 91 % of control
- COC1CC(O)(CC#N)C(OC(=O)c2ccc([N+](=O)[O-])cc2)C(COC(=O)c2ccc([N+](=O)[O-])cc2)O1 (stereo unspecified): 104 % of control
- COCC1(C)CCCC2(C)C3=C(CCC(=O)C3)CCC12 (stereo unspecified): 96 % of control
- O=C1C2C3C4C5C(C2C5(Br)C32OCCO2)C14Br (stereo unspecified): 113 % of control
- CC(C)CCNCC(N)C(=O)O (stereo unspecified): 99 % of control

###

- System: P388 leukemia ip, CD2F1 mice, survival T/C
- experiment summary: NCI In Vivo Anticancer Drug Screen. Data for tumor model P388 Leukemia (intraperitoneal) in CD2F1 (CDF1) mice
- measurement setup: endpoint: median survival time; dose: 6.25 mg/kg/injection; schedule: Q01DX009 (ip); vehicle: saline with Tween-80; higher = longer survival
Inconclusive results and toxic doses are left out.
endpoint label: T/C

* C#Cc1cccc(N=Cc2ccc(C=Nc3cccc(C#C)c3)cc2)c1 | 104 % of control
* C=C(NC(C)=O)C(=O)O | 103 % of control
* Cc1coc2c1C(OC(=O)C(C)C)C1(C)C(C)CCC(O)C1C2=O (configuration not stated) | 93 % of control
* C/C(=N\NC(=S)N(C)C)c1ccccn1 | 100 % of control
* Nc1ncnc2nc(CO)[nH]c12 | 91 % of control
* CC1=Nc2cc(Cl)c(Cl)cc2N(C)/C1=C/C1=C(Cl)C(=O)c2ccccc2C1=O | 114 % of control
* CCCC(=O)c1ccco1 | 88 % of control
* CC(=N)c1ccc(C)cc1 | 90 % of control
* Nc1nnc(SCc2ccccc2)s1 | 104 % of control
* O=C1c2ccccc2C(=Cc2cccnc2)c2ccccc21 | 94 % of control
* O=C1c2ccccc2C(=O)N1CC[P+](c1ccccc1)(c1ccccc1)c1ccccc1 | 88 % of control
* CCCCCCCCCCCC(=O)OCCN1CCN(CCCN2c3ccccc3Sc3ccc(C(F)(F)F)cc32)CC1 | 107 % of control

###

- System: P388 leukemia ip, CD2F1 mice, survival T/C
- experiment summary: NCI In Vivo Anticancer Drug Screen. Data for tumor model P388 Leukemia (intraperitoneal) in CD2F1 (CDF1) mice
- measurement setup: endpoint: median survival time; dose: 100.0 mg/kg/injection; schedule: Q04DX003 (ip); vehicle: saline; higher = longer survival
Inconclusive results and toxic doses are left out.
Catalogue of T/C values
endpoint label: T/C

* NC=O | 100 % of control
* BrC1CC2(OCCO2)C(Br)CC12OCCO2 (configuration not stated) | 118 % of control
* CC1/C(=N\Nc2ccc([N+](=O)[O-])cc2)CC2C3(C)CCC2(C(C)C(=O)O)C(=O)C13 (configuration not stated) | 93 % of control
* COC(=O)/C=C/c1ccccc1-c1ccccc1/C=C/C(=O)OC | 105 % of control
* O=C(O)c1c[nH]c2cc(OCc3ccc4ccccc4c3)ccc2c1=O | 90 % of control
* O=C(O)CNCc1ccc(F)cc1 | 98 % of control
* CNc1ncnc2c1cnn2C | 104 % of control
